system: primary human HSCs; assay: α-SMA Assay in TGF-β-stimulated hepatic stellate cells; format: cell-based; details: 24 h, read-out: α-SMA Assay EC50
assay readout: pEC50
Numbers only, as −log10 of the molar value.

-- ask What value of measured pEC50 is listed for Cc1cc(F)c(C(=O)Nc2cccc(-c3nncn3C(C)C)n2)cc1-n1cnc(C2CC2)c1 ?
-- reply 7.72
